- Assay Name: AUC (0 to t) in high fat diet fed Syrian golden hamster at 25 mg/kg, po
- Type: ADME, organism-based, Mesocricetus auratus
- Parameters: dose 25 mg/kg, route oral
- Experimental Parameters: plasma
Assay Metric: AUC(0-t) (ng·h/mL)
Answer in ng·h/mL, number only, no unit symbol.

Consider the compound CC1=CCC[C@@H]2[C@@](C)(CCC3=CC(=O)O[C@@H]3O)[C@H](C)CC[C@@]12C and give its measured AUC(0-t).
5740

###

- Assay Name: Cmax in high fat diet fed Syrian golden hamster at 25 mg/kg, po
- Type: ADME, organism-based, Mesocricetus auratus
- Set-up: dose 25 mg/kg, route oral
- Experimental Parameters: in vivo
Assay Metric: Cmax (ng/mL)
Numeric only. Scale: ng/mL

What does the record list as Cmax for CC1=CCC[C@@H]2[C@@](C)(CCC3=CC(=O)O[C@@H]3O)[C@H](C)CC[C@@]12C ?
2490
